system: Neutrophil; assay: Anti-inflammatory activity in human neutrophils assessed as inhibition of fMLP/CB-induced superoxide anion production by measuring reduction of ferricytochrome c at 10 uM pretreated for 5 mins followed by fMLP/CB addition measured after 10 mins by spectrophotometric method relative to control; type: functional
attribute.measured: inhibition at 10 µM
Don't forget the unit after the value.

Task: Which inhibition at 10 µM reading was recorded for the compound `CC1=CC(=O)[C@@H]2[C@@H](C1)[C@]13CO[C@@]4([C@H]1O)N1C[C@H]5C[C@H](C)C[C@]1(CC[C@@]4(C)[C@]1(COC(=O)C1)[C@H]3C(=O)[C@@H]2C)O5` ?
Result: 9%

Task: Same question, `CC1=CC(=O)[C@@H]2[C@@H](C1)C13C=C4N5C[C@H]6C[C@H](C)C[C@]5(CC[C@@]4(C)[C@]4(COC(=O)C4)[C@H]1[C@@](O)(OC3)[C@@H]2C)O6` this time
Result: 17%

Task: Same question, `CC1=CC(=O)[C@H]2[C@@H](C1)[C@]13CO[C@@]4(C1=O)N1C[C@H]5C[C@H](C)C[C@]1(CC[C@@]4(C)[C@]1(COC(=O)C1)[C@H]3C(=O)[C@@H]2C)O5` this time
Result: 14%

Task: Same question, `CC1=CC(=O)[C@@H]2[C@@H](C1)C13C=C4N5C[C@@H]6O[C@@]5(CC[C@@]4(C)[C@]4(COC(=O)C4)[C@H]1[C@@](O)(OC3)[C@@H]2C)C[C@@H](C)[C@@H]6O` this time
Result: 14%

Task: Same question, `O=c1cc(N2CCOCC2)oc2c(-c3ccccc3)cccc12` this time
Result: 99%

Task: Same question, `CC1=CC(=O)[C@@H]2[C@@H](C1)[C@]13CO[C@@]4(C1=O)N1C[C@H]5C[C@H](C)C[C@@]1(O5)[C@@H](O)C[C@@]4(C)[C@]1(COC(=O)C1)[C@H]3C(=O)[C@@H]2C` this time
Result: 13%

Task: Same question, `CC1=CC(=O)[C@@H]2[C@@H](C1)[C@]13CO[C@@]4([C@H]1O)N1C[C@H]5C[C@H](C)C[C@@]1(O5)[C@@H](O)C[C@@]4(C)[C@]1(COC(=O)C1)[C@H]3C(=O)[C@@H]2C` this time
Result: 11%

Task: Same question, `CC1=CC(=O)[C@@H]2[C@@H](C1)[C@]1(C)C=C3N4C[C@H]5C[C@H](C)C[C@]4(CC[C@@]3(C)[C@]3(COC(=O)C3)[C@H]1C(=O)[C@@H]2C)O5` this time
Result: 18%

Task: Same question, `CO[C@@H]1[C@@H](C)C[C@@H]2CN3[C@@]1(CC[C@@]1(C)[C@]4(COC(=O)C4)[C@H]4C(=O)[C@H](C)[C@@H]5C(=O)C=C(C)C[C@H]5[C@@]45CO[C@@]31C5=O)O2` this time
Result: 20%

Task: Same question, `CC1=CC(=O)[C@@H]2[C@@H](C1)[C@]13CO[C@@]4(C1=O)N1C[C@H]5C[C@H](C)C[C@]1(CC[C@@]4(C)[C@]1(COC(=O)C1)[C@H]3C(=O)[C@@H]2C)O5` this time
Result: 7%

---

tested on: Neutrophil; assay: Anti-inflammatory activity in human neutrophils assessed as inhibition of fMLP/CB-induced elastase release at 10 uM using MeO-Suc-Ala-Ala-Pro-Val-p-nitroanilide as a substrate pretreated for 5 mins followed by fMLP/CB addition relative to control; type: functional
For each of the compounds below, state its inhibition at 10 µM.
All answers are understood in %, so give the number only.

Task: Which inhibition at 10 µM reading was recorded for the compound `CC1=CC(=O)[C@@H]2[C@@H](C1)[C@]13CO[C@@]4([C@H]1O)N1C[C@H]5C[C@H](C)C[C@@]1(O5)[C@@H](O)C[C@@]4(C)[C@]1(COC(=O)C1)[C@H]3C(=O)[C@@H]2C` ?
Result: 27

Task: Same question, `CC1=CC(=O)[C@@H]2[C@@H](C1)[C@]13CO[C@@]4([C@H]1O)N1C[C@H]5C[C@H](C)C[C@]1(CC[C@@]4(C)[C@]1(COC(=O)C1)[C@H]3C(=O)[C@@H]2C)O5` this time
Result: 6

Task: Same question, `CO[C@@H]1[C@@H](C)C[C@@H]2CN3[C@@]1(CC[C@@]1(C)[C@]4(COC(=O)C4)[C@H]4C(=O)[C@H](C)[C@@H]5C(=O)C=C(C)C[C@H]5[C@@]45CO[C@@]31C5=O)O2` this time
Result: 33
